Source of measurements: patent US20260027096A1

- tested_target: KDM6B: lysine specific demethylase 6B (Homo sapiens (Human))
- Sequence (O15054 1141-1590): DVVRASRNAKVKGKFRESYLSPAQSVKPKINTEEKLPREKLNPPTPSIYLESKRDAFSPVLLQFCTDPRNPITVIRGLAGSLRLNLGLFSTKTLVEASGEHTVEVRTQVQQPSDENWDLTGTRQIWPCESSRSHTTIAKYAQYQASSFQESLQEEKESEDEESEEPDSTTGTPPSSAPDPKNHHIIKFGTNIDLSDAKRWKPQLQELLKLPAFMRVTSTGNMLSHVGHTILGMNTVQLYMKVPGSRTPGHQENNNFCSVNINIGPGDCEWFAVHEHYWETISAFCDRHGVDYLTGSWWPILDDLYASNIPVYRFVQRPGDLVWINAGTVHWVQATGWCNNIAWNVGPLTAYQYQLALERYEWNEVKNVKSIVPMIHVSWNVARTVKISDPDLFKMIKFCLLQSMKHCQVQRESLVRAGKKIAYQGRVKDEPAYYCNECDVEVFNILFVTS
result_type: IC50

INPUT: Fill in: IC50 of O=C(NCC1CCC(C(F)(F)F)CC1)c1cnc(-n2cccn2)cc1O (stereo not shown) is ___
OUTPUT: > 100 µM

----------
- tested_target: PHD2 (Homo sapiens (Human), UniProt Q9GZT9)
- Sequence (Q9GZT9 181-426): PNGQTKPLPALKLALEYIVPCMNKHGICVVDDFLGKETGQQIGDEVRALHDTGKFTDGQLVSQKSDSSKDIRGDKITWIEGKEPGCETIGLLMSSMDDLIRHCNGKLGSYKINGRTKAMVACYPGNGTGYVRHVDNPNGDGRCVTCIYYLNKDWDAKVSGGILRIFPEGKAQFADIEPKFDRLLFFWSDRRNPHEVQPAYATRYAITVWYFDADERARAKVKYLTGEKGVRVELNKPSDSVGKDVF
pIC50: −log10 of the molar value.
result_type: pIC50

Use the examples below as a reference point.
>>> observed_value("O=C(NCc1cccc(-c2ccccc2)c1)c1cnc(-n2cccn2)c(O)c1")
"5.00 to 6.00"
>>> observed_value("O=C(NCC1CCCCC1)c1cnc(-n2cccn2)cc1O")
"< 5.00"
>>> observed_value("O=C(O)c1ccc(-n2cc(C(=O)NCc3ccc(-c4ccccc4)cc3)cn2)nc1")
"5.00 to 6.00"
>>> observed_value("O=C(NCc1ccc(-c2ccccc2)cc1)c1cnn(-c2cc(O)c(C(=O)O)cn2)c1")
"5.00 to 6.00"
>>> observed_value("Cc1cc2nc(C)c3c(O)c(C(=O)NCc4ccc(C(F)(F)F)cc4)cnc3n2n1")
"6.00 to 9.00"

Report pIC50 for each item below.
1. O=C(O)c1cnn(-c2cc(O)c(C(=O)NCc3ccc(-c4ccccc4)nc3)cn2)c1
2. COc1cc(-n2cc(C(=O)NCc3ccc(-c4ccccc4)cc3)cn2)ncc1C#N
3. O=C(NCc1ccc(-c2ccccc2)nc1)c1cnc(-n2cccn2)cc1O
4. O=C(Nc1cccc(-c2ccccc2)c1)c1cnc(-n2cccn2)cc1O
5. O=C(O)c1cnn(-c2ncc(C(=O)NCC3CCC(C(F)(F)F)CC3)cc2O)c1 (stereo not drawn)
6. O=C(NCc1ccc(C(F)(F)F)cc1)c1cnc(-n2cccn2)cc1O
7. O=C(NCc1ccc(-c2ccccc2)cc1)c1ccc(-n2cccn2)nc1

OUTPUT:
6.00 to 9.00
< 5.00
6.00 to 9.00
6.00 to 9.00
6.00 to 9.00
6.00 to 9.00
< 5.00
